Experiment: compound effects on differentiated 3T3-L1 adipocyte viability – cell-based, 3T3-L1 adipocytes, calcein-AM fluorescence, 48 h, basal, profiling panel (AID 1163); further: test concentration not given here
Conditions: 3T3-L1 adipocytes viability, higher = more signal
Overview of reported z-score across a group of compounds:

These solved cases illustrate the format of a correct answer.
O=C1O[C@H](c2ccccc2)[C@H](c2ccccc2)N2[C@H]1[C@@H](C(=O)N1CCCCCCC1)[C@]1(C(=O)Nc3ccc(C#CCCO)cc31)[C@H]2c1ccc(OCCO)cc1; 0.162
C=CC[C@@]1(C(=O)NCC(O)CO)N=C(c2ccc(OCCCO)cc2)O[C@@H]1c1ccccc1 (some centres undefined); 1.07
O=C(N1CCOCC1)[C@@]1(CCS(=O)(=O)c2ccccc2)COC(c2ccc(OCCCO)cc2)=N1; -1.09
CCOC(=O)C[C@H]1[C@H](OC(=O)Cc2ccc3c(c2)OCO3)[C@@H](NC(=O)c2ccccc2)c2cc(OCCCO)ccc2N1C(=O)c1ccccc1; 0.232
C=C(C)[C@@H]1CC=C(C(O)C2C=CC3C(=O)N(C4CCCCC4)C(=O)C3N2Nc2ccc(OC)cc2)CC1 (some centres undefined); -1.46

State, in one line, measured z-score of C=CCC(OC(C)=O)[C@@H]1[C@@H](N(Cc2cccc3ccccc23)C(=O)c2ccc(C)cc2)c2cc(OCCCO)ccc2N1C(=O)c1ccc2ccccc2c1 (some centres undefined) 1.08

State its z-score: COC(=O)C(CC#Cc1ccc2c(c1)[C@]1(C(=O)N2)[C@H](C(=O)N2CCc3cc(OC)c(OC)cc3C2)[C@H]2C(=O)O[C@H](c3ccccc3)[C@H](c3ccccc3)N2[C@@H]1c1ccc(OCCO)cc1)C(=O)OC -0.204

Answer with the recorded z-score of O=C1O[C@@H](c2ccccc2)[C@@H](c2ccccc2)N2[C@@H](c3ccc(O)cc3)[C@]3(C(=O)Nc4ccc(C#CC5=CCCCC5)cc43)[C@@H](C(=O)Nc3nc4ccccc4s3)[C@H]12 only. -0.0897

Note z-score for the compound shown: CC(=O)NCCCC[C@@H]1NC(=O)[C@H]2C[C@@H](C(=O)NCCCCCN)[C@@H](c3cccc(OCCO)c3)N2C1=O 0.352

Note z-score for the compound shown: COC(=O)[C@@]1(Cc2ccccc2)[C@H]2c3cc(C(=O)N(C)C)n(Cc4ccc(O)c(OC)c4)c3C[C@H]2CN1C(=O)c1ccccc1 1.68

The measured values listed here are drawn from PubChem BioAssay.
